Test system: Candida albicans
Conditions: 20 µM
Measured potencies and affinities stand elsewhere.
Rule: Inhibition of 4% or more gives Y; anything lower gives N.

1. CCN1CC(CCN2CCOCC2)C(c2ccccc2)(c2ccccc2)C1=O.Cl (configuration not stated); Y
2. CC1CC2C3CCC4=CC(=O)C=CC4(C)[C@@]3(Cl)C(O)CC2(C)C1(O)C(=O)CO (some centres not stated); N
3. CCOC(=O)c1ccc(OC(=O)CCCCCN=C(N)N)cc1.CS(=O)(=O)O; N
4. COc1cc(C)c(/C=C/C(C)=C/C=C/C(C)=C/C(=O)O)c(C)c1C [ACITRETIN]; N
5. Cn1ccnc1S [METHIMAZOLE]; Y

q: Reported Inhibition at or above 4%? CN(C)CCOC(c1ccccc1)c1ccccc1.Cl [DIPHENHYDRAMINE HYDROCHLORIDE]
a: Y

q: Reported Inhibition at or above 4%? CC(=O)C1(O)CCC2C3CC(C)C4=CC(=O)C=CC4(C)C3(F)C(O)CC21C (configuration not stated)
a: N

q: Reported Inhibition at or above 4%? CCCC(=O)Nc1ccc(OCC(O)CNC(C)C)c(C(C)=O)c1.Cl (configuration not stated) [ACEBUTOLOL HYDROCHLORIDE]
a: N

###

System: Cryptococcus neoformans
Conditions: Concentration 20 uM; ASSAY_TEST Inhibition of Fungal Growth; detection method Resazurin; Absorption (OD600-OD570); plate type 384well; NBS; CORNING #3640
Measured potencies and affinities stand elsewhere.
READOUT NAME: Inhibition (%)
Write the number in % without appending the unit.

1) CC(Cc1ccccc1)(NC(=O)CN)c1ccccc1.Cl (centres undefined) [REMACEMIDE HYDROCHLORIDE]; -7.79

q: // returns reported Inhibition for input Cl.O=C(c1ccc(OCCN2CCCCC2)cc1)c1c(-c2ccc(O)cc2)sc2cc(O)ccc12 [RALOXIFENE HYDROCHLORIDE]
a: -13.3

q: // returns reported Inhibition for input CCOC(=O)[C@H](CCc1ccccc1)N[C@H]1CCc2ccccc2N(CC(=O)O)C1=O.Cl [BENAZEPRIL HYDROCHLORIDE]
a: 0.84

q: // returns reported Inhibition for input O=C1c2c(O)cc(O)cc2O[C@H](c2ccc(O)c(O)c2)[C@@H]1O
a: -8.67

###

The compounds listed here are annotated with their Inhibition.
Test system: Klebsiella pneumoniae
Details: Concentration 20 uM; ASSAY_TEST Inhibition of Bacterial Growth; detection method Absorption (OD600); MEDIA CAMHB; plate type 384well; NBS; CORNING #3640; time 18 hr
Measured potencies and affinities stand elsewhere.

Some solved entries appear below for comparison.
1. CC(C)NCC(O)c1ccc(NS(C)(=O)=O)cc1.Cl (stereo not drawn) [SOTALOL HYDROCHLORIDE]; -0.96%
2. C[C@]12C=CC(=O)C=C1CC[C@@H]1[C@@H]2[C@@H](O)C[C@@]2(C)[C@H]1CC[C@]2(O)C(=O)CO; 15.03%
3. Cc1nc2n(c(=O)c1CCN1CCC(c3noc4cc(F)ccc34)CC1)CCCC2; 4.8%
4. CCCCNC(=O)NS(=O)(=O)c1ccc(C)cc1 [TOLBUTAMIDE]; 16.6%

q: // returns reported Inhibition for input CCCC(CCC)C(=O)O
a: 1.95%

###

The molecules listed here are annotated with their Inhibition.
System: Klebsiella pneumoniae
Conditions: Concentration 20 uM; ASSAY_TEST Inhibition of Bacterial Growth; detection method Absorption (OD600); MEDIA CAMHB; plate type 384well; NBS; CORNING #3640; time 18 hr
Results with a measured potency or affinity are listed apart.
Write the number in % without appending the unit.

Some solved entries appear below for comparison.
1) CNC(=C[N+](=O)[O-])NCCSCc1ccc(CN(C)C)o1.Cl [RANITIDINE HYDROCHLORIDE]; 4.5
2) CC[C@]1(O)C[C@@H]2CN(CCc3c([nH]c4ccccc34)[C@@](C(=O)OC)(c3cc4c(cc3OC)N(C)[C@H]3[C@@](O)(C(N)=O)[C@H](O)[C@]5(CC)C=CCN6CC[C@]43[C@@H]65)C2)C1.O=S(=O)(O)O [VINDESINE SULFATE]; 6.96

In the following, a different molecule is considered.
q: // returns reported Inhibition for input Sc1ncnc2nc[nH]c12 [MERCAPTOPURINE ANHYDROUS]
a: 7.84

###

Tested on: Cryptococcus neoformans
Conditions: Concentration 20 uM; ASSAY_TEST Inhibition of Fungal Growth; detection method Resazurin; Absorption (OD600-OD570); plate type 384well; NBS; CORNING #3640
Potency and affinity values are given separately.
The compounds listed here are annotated with their Inhibition.
Write the number in % without appending the unit.

1. CCC(C)(C)C(=O)O[C@H]1C[C@@H](C)C=C2C=C[C@H](C)[C@H](CC[C@@H]3C[C@@H](O)CC(=O)O3)[C@H]21 [SIMVASTATIN]; 3.41

In the following, a different compound is considered.
q: // returns reported Inhibition for input C[C@@H]1C[C@H]2[C@@H]3CCC4=CC(=O)C=C[C@]4(C)[C@@]3(F)[C@@H](O)C[C@]2(C)[C@H]1C(=O)CO [DESOXIMETASONE]
a: 2.06

###

Test system: Klebsiella pneumoniae
Conditions: Concentration 20 uM; ASSAY_TEST Inhibition of Bacterial Growth; detection method Absorption (OD600); MEDIA CAMHB; plate type 384well; NBS; CORNING #3640; time 18 hr
Entries with a potency or affinity are not part of this list.
The molecules listed here are annotated with their Inhibition.
Write the number in % without appending the unit.

1) Cn1ccnc1S; 12.71
2) CC1=Nc2ccc(Cl)cc2S(=O)(=O)N1 [DIAZOXIDE]; 19.87
3) Cc1cnc(C(=O)NCCc2ccc(S(=O)(=O)NC(=O)NC3CCCCC3)cc2)cn1 [GLIPIZIDE]; 8.44
4) O=C(O)c1cccnc1; 4.99
5) CC(=O)CCCCn1cnc2c1c(=O)n(C)c(=O)n2C; 10.43
6) NS(=O)(=O)c1cc2c(cc1Cl)N=CNS2(=O)=O [CHLOROTHIAZIDE]; 4.1
7) CN(C)CCCN1c2ccccc2Sc2ccc(Cl)cc21.Cl [CHLORPROMAZINE HYDROCHLORIDE]; 12.47
8) CCOC(=O)[C@@H](CCc1ccccc1)N[C@@H](C)C(=O)N1CCC[C@H]1C(=O)O.O=C(O)/C=C\C(=O)O; 10.36

q: // returns reported Inhibition for input CCN(CC)CCNC(=O)c1ccc(N)cc1.Cl [PROCAINAMIDE HYDROCHLORIDE]
a: -3.79

q: // returns reported Inhibition for input O=c1[nH]c(=O)n(C2CCCO2)cc1F (stereo not given)
a: 13.49

###

Test system: Candida albicans
Details: 20 µM
Measured potencies and affinities stand elsewhere.
READOUT NAME: Inhibition
State the value, then name its unit.

q: // returns reported Inhibition for input CC(C)NCC(O)c1ccc(NS(C)(=O)=O)cc1.Cl (configuration not stated) [SOTALOL HYDROCHLORIDE]
a: 5.09%

q: // returns reported Inhibition for input CCCCC(=O)N(Cc1ccc(-c2ccccc2-c2nnn[nH]2)cc1)[C@H](C(=O)O)C(C)C
a: 3.96%

q: // returns reported Inhibition for input O=C1CCC(N2C(=O)c3ccccc3C2=O)C(=O)N1 (configuration not stated) [THALIDOMIDE]
a: 3.62%

q: // returns reported Inhibition for input CC(CCc1ccccc1)NCC(O)c1ccc(O)c(C(N)=O)c1.Cl (configuration not stated) [LABETALOL HYDROCHLORIDE]
a: 4.68%

q: // returns reported Inhibition for input CC[C@]1(O)C[C@@H]2CN(CCc3c([nH]c4ccccc34)[C@@](C(=O)OC)(c3cc4c(cc3OC)N(C)[C@H]3[C@@](O)(C(N)=O)[C@H](O)[C@]5(CC)C=CCN6CC[C@]43[C@@H]65)C2)C1.O=S(=O)(O)O [VINDESINE SULFATE]
a: 3.45%

q: // returns reported Inhibition for input CN(CCO)CC(O)Cn1cnc2c1c(=O)n(C)c(=O)n2C.O=C(O)c1cccnc1 (configuration not stated) [XANTHINOL NIACINATE]
a: 0.26%

q: // returns reported Inhibition for input CN1CCN(CC/C=C2/c3ccccc3Sc3ccc(S(=O)(=O)N(C)C)cc32)CC1 [THIOTHIXENE]
a: 2.99%

###

Tested on: Candida albicans
Conditions: 20 µM
Measured potencies and affinities stand elsewhere.
READOUT NAME: Inhibition (%)
Write the number in % without appending the unit.

1) CC1(C)O[C@@H]2C[C@H]3[C@@H]4C[C@H](F)C5=CC(=O)C=C[C@]5(C)[C@@]4(F)[C@@H](O)C[C@]3(C)[C@]2(C(=O)CO)O1 [FLUOCINOLONE ACETONIDE]; 5.45
2) NS(=O)(=O)c1cc2c(cc1C(F)(F)F)NCNS2(=O)=O [HYDROFLUMETHIAZIDE]; -0.33
3) c1ccc2[nH]c(-c3cscn3)nc2c1; 1.43
4) CN(C)CCCN1c2ccccc2CCc2ccc(Cl)cc21.Cl [CLOMIPRAMINE HYDROCHLORIDE]; 2.36
5) CS(=O)(=O)O.Cc1ccc(NC(=O)c2ccc(CN3CCN(C)CC3)cc2)cc1Nc1nccc(-c2cccnc2)n1 [IMATINIB MESYLATE]; 2.45

q: // returns reported Inhibition for input COCCCC/C(=N\OCCN)c1ccc(C(F)(F)F)cc1.O=C(O)/C=C\C(=O)O [FLUVOXAMINE MALEATE]
a: 2.11

q: // returns reported Inhibition for input N[C@@H](Cc1cc(I)c(Oc2cc(I)c(O)c(I)c2)c(I)c1)C(=O)O
a: 21.1
